Recorded values, source patent US20260250420A1.

# kon per entry
- Target Of Assay: T1, human PTK7 protein (extracellular sequence of human PTK7 with C-terminal 6×His tag) (human, UniProt Q13308 31-704)
- T1 construct: extracellular domain; Expressed transiently in HEK293 cells; also called human PTK7-His; human PTK7-His protein
- T1 sequence: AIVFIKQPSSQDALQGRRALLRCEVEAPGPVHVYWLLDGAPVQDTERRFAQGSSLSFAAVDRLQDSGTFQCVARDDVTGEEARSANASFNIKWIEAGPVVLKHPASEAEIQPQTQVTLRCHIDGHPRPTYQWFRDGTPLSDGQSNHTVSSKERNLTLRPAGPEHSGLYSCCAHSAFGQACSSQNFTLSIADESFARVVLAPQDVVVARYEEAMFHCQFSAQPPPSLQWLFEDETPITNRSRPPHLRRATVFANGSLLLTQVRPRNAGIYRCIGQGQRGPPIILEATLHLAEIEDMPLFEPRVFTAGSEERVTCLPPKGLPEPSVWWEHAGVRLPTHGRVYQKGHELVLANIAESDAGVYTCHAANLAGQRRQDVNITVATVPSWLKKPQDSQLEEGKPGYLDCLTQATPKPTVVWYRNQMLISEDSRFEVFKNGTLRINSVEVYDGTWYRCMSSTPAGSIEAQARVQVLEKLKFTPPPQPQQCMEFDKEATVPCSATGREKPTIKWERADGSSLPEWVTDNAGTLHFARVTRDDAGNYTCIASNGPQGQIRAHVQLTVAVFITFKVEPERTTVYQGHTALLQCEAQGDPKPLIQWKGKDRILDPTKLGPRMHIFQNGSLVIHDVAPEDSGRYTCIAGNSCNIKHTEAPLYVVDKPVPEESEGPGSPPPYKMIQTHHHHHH
- Test Details: BLI (ForteBio), antibody on Protein A sensor, human PTK7-His 200-3.125 nM, 1:1 global fit

Below are worked cases with known answers.
{"Binder": "Hu24 (PTK7 control antibody, taken from Hu24 in the Patent CN201580030255) (antibody) chain 1: QVQLVQSGPEVKKPGASVKVSCKASGYTFTDYAVHWVRQAPGKRLEWIGVISTYNDYTYNNQDFKGRVTMTRDTSASTAYMELSRLRSEDTAVYYCARGNSYFYALDYWGQGTSVTVSS chain 2: EIVLTQSPATLSLSPGERATLSCRASESVDSYGKSFMHWYQQKPGQAPRLLIYRASNLESGIPARFSGSGSGTDFTLTISSLEPEDFAVYYCQQSNEDPWTFGGGTKLEIK", "kon": "211000 M⁻¹ s⁻¹"}
{"Binder": "4E12HZ (anti-human PTK7 humanized antibody) (antibody, human IgG1, kappa, V domains shown, Human IgG1 heavy chain constant region and human Kappa light chain constant region) VH: QVQLVQSGAEVKRPGASVKVSCKTSGYTFTDYAMHWVRQAPGKGLEWIGVISTYYGNVSYNQKFKGRVTMTRDTSTSTVYMELSSLTSEDTAIYYCARGFAYWGQGTLVTVSS VL: DIVITQTELSLPVTPGERASISCRSSKSLQKKDGKTYLNWFLQKPGQSPQLLIYLMSTRASGVSDRFSGSGSGTDFTLKISRVEAEDVGVYYCQQLVEYPFTFGQGTKLEIKR", "kon": "243000 M⁻¹ s⁻¹"}
{"Binder": "64A10HZ (anti-human PTK7 humanized antibody) (antibody, human IgG1, kappa, V domains shown, Human IgG1 heavy chain constant region and human Kappa light chain constant region; expressed in CHO-S cells) VH: QVQLQESGPGLVKPSETLSLTCTVSGFSLTSYGVYWVRQPPGKGPEWLGVIWTSGNTNYNPSLKSRLTISKDNSKNQVSLKLSSVTAADTAVYYCVKHDGGNYVGVMNYWGQGTLVTVSS VL: EIVMTQSPDFQSVTPKEKVTITCRASQSISDYLHWYQQKPDQSPKLLIKYASQSISGVPSRFSGSGSGSDFTLTINSLEAEDAATYYCQNGHSFPPTFGQGTKLEIKR", "kon": "255000 M⁻¹ s⁻¹"}

Field: next binder
Query string: Supply reported kon belonging to this binder: 19C2HZ (anti-human PTK7 humanized antibody) (antibody, human IgG1, kappa, V domains shown, Human IgG1 heavy chain constant region and human Kappa light chain constant region) VH: QVTLKESGPTLVKPTQTLTLTCTFSGFSLSTSGMGINWIRQPPGKALEWLALIWWDDDKYYNPSLKNRLTITKDTSKNQVVLTMTNMDPVDTATYYCARSLITTAPSDYWGQGTLVTVSS VL: DIQMTQSPSSLSASVGDRVTITCKASQNVGTAITWYQQRPGKAPKLLIYSASNRYTGVPSRFSGSGSGTDFTLTISNLQPEDLATYFCLQYSDYPLTFGQGTRLEIKR
Result string: 197000 M⁻¹ s⁻¹
